Test: NCI Yeast Anticancer Drug Screen. Data for the mlh1 rad18 strain (AID 175)
Conditions: S. cerevisiae mlh1 rad18 strain growth inhibition; at 50.0 µM; stronger effect = higher value
This is part of a sample that, as a whole, favours compounds with a hit. Of some 79,000 tested, about 15% had one in any assay.
Measurement type: growth inhibition (%)
Record the value in %, omitting the unit from your answer.

Entry under review: `CC(C)(C)NC(=O)Nc1nccs1` . Reported growth inhibition?
9.85

Entry under review: Cc1c(C(=O)CC2OC(=O)C(Cl)=C2Cl)c2ccccc2n1C(=O)Nc1ccc(Cl)cc1 (centres undefined) . Reported growth inhibition?
5.3

Entry under review: CCCCCCCCCCCCCCNC(=O)C(C)O (centres undefined) . Reported growth inhibition?
-2.2

----------
The reader will find reported growth inhibition values listed item by item below.
Test: NCI Yeast Anticancer Drug Screen. Data for the sgs1 mgt1 strain (AID 161);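 also: 0% = growth of cultures given vehicle only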
Settings: S. cerevisiae sgs1 mgt1 strain, at 50.0 µM, stronger effect = higher value
Method: Growth inhibition of yeast strains with defined genetic alterations is measured as a screen for potential anti-cancer activity. Selected strains with alterations in DNA damage repair or cell cycle control were exposed to compounds and growth inhibition was measured relative to vehicle treated controls. The strain used in this assay is sgs1 mgt1
The panel holds about 79,000 compounds, 15% with a hit somewhere; the sample as a whole holds those more often.
Record the value in %, omitting the unit from your answer.

Worked set:
compound=COC(=O)c1nnn(CCc2c[nH]c3ccccc23)c1C(=O)OC measurement_type="growth inhibition" numeric_readout=-11.3
compound=Cc1ccc2c(c1)[nH]c(=S)n2C=C1C(=O)CC(C)(C)CC1=O measurement_type="growth inhibition" numeric_readout=-33.8
compound=O=C1NNC2(C(=O)N1)c1ccccc1-c1ccccc12 measurement_type="growth inhibition" numeric_readout=28.1
compound=C/C(=N/NC(N)=O)c1ccc(C)o1 measurement_type="growth inhibition" numeric_readout=-4.4
compound=CC(=O)Nc1ccc([N+](=O)[O-])cc1Cl measurement_type="growth inhibition" numeric_readout=16.8
compound=C=CCOC(=O)CC(=C)C(=O)OCC=C measurement_type="growth inhibition" numeric_readout=-8.95
compound=Cc1c(-c2ccc(Cl)cc2)n[nH]c1-c1[nH]nc(-c2ccc(Cl)cc2)c1C measurement_type="growth inhibition" numeric_readout=-26.1
compound=COc1ccc(-c2nnc(-c3nsc4ccccc34)o2)cc1 measurement_type="growth inhibition" numeric_readout=-21.5
compound=O=[N+]([O-])c1cc(F)ccc1Sc1ccccc1 measurement_type="growth inhibition" numeric_readout=38.9
compound=COC(=O)[C@]1(C)CCC[C@]2(C)c3ccc(C(C)=O)cc3C(=O)C[C@@H]12 measurement_type="growth inhibition" numeric_readout=9.5

Entry under review: `Cc1ccc(N2C(=O)CNC2=O)cc1` . Reported growth inhibition?
-7.8

Entry under review: CC1(O)CC2C(CC1SC1CC3C(CC1(C)O)C3(C)C)C2(C)C (stereo not given) . Reported growth inhibition?
-45.8

Entry under review: `Cc1c2sc3ccccc3[nH]c2nc2[nH]c3ccccc3sc12` . Reported growth inhibition?
-25.1

Entry under review: `C/C(CC(=O)Nc1ccc(Cl)cc1)=N\NC(N)=S` . Reported growth inhibition?
9.6

Entry under review: `CC1=C(Br)C(=O)C(C(C)C)=CC1=O` . Reported growth inhibition?
-6.75

Entry under review: N/N=C(\c1nc2ccc([N+](=O)[O-])cc2[nH]c1=O)C(O)c1ccc(Cl)c(Cl)c1 (stereo not given) . Reported growth inhibition?
-11.1

Entry under review: COC(=O)/C(=N\O)C(C(=O)C=C(C)C)C(=O)C(=O)Nc1ccccc1C (stereo not given) . Reported growth inhibition?
-8.35

Entry under review: `CSCNC(=S)Nc1ccc(Cl)c(Cl)c1` . Reported growth inhibition?
35

Entry under review: `CCCSc1cc(Cl)c(C)cc1S(=O)(=O)n1cc[nH]c1=O` . Reported growth inhibition?
9.15

Entry under review: `Cn1cnc2c1S(=O)(=O)NCN2` . Reported growth inhibition?
-8.6

Entry under review: `N#Cc1nn(CCCl)c(=O)c2ccccc12` . Reported growth inhibition?
10

Entry under review: CCOC(=O)C1CC1c1ccccc1 (stereo not given) . Reported growth inhibition?
-0.25

Entry under review: `CC(=O)C[n+]1ccccc1Sc1ccc(Cl)cc1` . Reported growth inhibition?
14.1

Entry under review: `COc1ccc(OC)c(NC(=O)Nc2ccc(I)cc2)c1` . Reported growth inhibition?
33.9

Entry under review: OC(CNc1ccc(Cl)nn1)c1ccccc1 (stereo not given) . Reported growth inhibition?
21

----------
Assay: NCI Yeast Anticancer Drug Screen. Data for the sgs1 mgt1 strain (AID 161);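 also: 0% = growth of cultures given vehicle only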
Conditions: S. cerevisiae sgs1 mgt1 strain, at 50.0 µM, stronger effect = higher value
The panel holds about 79,000 compounds, 15% with a hit somewhere; the sample as a whole holds those more often.
Measurement type: growth inhibition (%)
Record the value in %, omitting the unit from your answer.

Worked set:
compound=O=C(CBr)Nc1ccccc1[N+](=O)[O-] numeric_readout=5.8
compound="CC(=O)OCC1OC(n2c(C)c(C(C)=O)c(-c3ccc(Cl)cc3)c(C#N)c2=S)C(OC(C)=O)C(OC(C)=O)C1OC(C)=O (stereo unspecified)" numeric_readout=-2.1
compound=Clc1ccc(/C=C/c2ccc3ccccc3n2)cc1 numeric_readout=-13

Entry under review: `CC(=O)NCC(=O)c1ccccc1` . Reported growth inhibition?
3.75

Entry under review: `Cc1ccc(NC(=O)CSc2nnc(-c3ccc(N=Cc4ccc(Cl)cc4)cc3)o2)cc1` . Reported growth inhibition?
12.5

----------
The reader will find reported growth inhibition values listed item by item below.
Experiment: NCI Yeast Anticancer Drug Screen. Data for the mlh1 rad18 strain (AID 175)
Conditions: S. cerevisiae mlh1 rad18 strain growth inhibition; at 50.0 µM; stronger effect = higher value
This is part of a sample that, as a whole, favours compounds with a hit. Of some 79,000 tested, about 15% had one in any assay. Activity calls are given as the source filed them. Rule as the data show it: active = growth inhibition above about 70%; inactive = the rest.

Worked set:
compound=NOCc1ccc(OCc2ccccc2)cc1 measurement_type="growth inhibition" result="-11.5% (inactive)"
compound=Cc1cccc(-c2nnc(N)o2)c1[N+](=O)[O-] measurement_type="growth inhibition" result="-16.4% (inactive)"
compound=Nc1ccc(C(=O)N/C(=C\c2cccc([N+](=O)[O-])c2)c2nc3ccc(Cl)cc3[nH]2)cc1 measurement_type="growth inhibition" result="-15.9% (inactive)"
compound="C=C1/C=C/C=C(/C)C(=O)Nc2c(C=O)c(O)c3c4c(c(C)c(O)c3c2O)OC(C)(O/C=C/C(OC)C(C)C(OC(C)=O)C(C)C(O)C(C)C1O)C4=O (stereo not drawn)" measurement_type="growth inhibition" result="32.5% (inactive)"
compound="OC1c2ccccc2-c2ccc(NCc3ccc4c(c3)OCO4)cc21 (stereo not drawn)" measurement_type="growth inhibition" result="19.4% (inactive)"
compound=CCOC(=O)C(/C=N\c1[nH]ncc1C#N)=C(/C(=O)OCC)c1ccc(O)cc1 measurement_type="growth inhibition" result="15.4% (inactive)"

Entry under review: `c1ccc2[nH]c(N=Nc3cccc4c(N=Nc5cc6ccccc6[nH]5)cccc34)cc2c1` . Reported growth inhibition?
8.65% (inactive)

Entry under review: CC(=O)Nc1ccc2c(c1)C(N1CCCCC1)c1ccccc1-2 (stereo not drawn) . Reported growth inhibition?
-5.4% (inactive)

Entry under review: C=CCCC12CCCC(=O)C1Sc1ccc3ccccc3c12 (stereo not drawn) . Reported growth inhibition?
7.15% (inactive)

Entry under review: `Fc1ccc2cc3cccc[n+]3cc2c1` . Reported growth inhibition?
2.35% (inactive)

Entry under review: CNc1ccn(C2OC(CO)C(O)C2O)c(=O)n1 (stereo not drawn) . Reported growth inhibition?
8.25% (inactive)

Entry under review: `O=C(O)c1nn(-c2ccccc2)c2c1CSc1ccccc1-2` . Reported growth inhibition?
13.2% (inactive)

Entry under review: FC(F)(F)c1cc(-c2ccc(C3Nc4ccccc4-n4cccc43)o2)cc(C(F)(F)F)c1 (stereo not drawn) . Reported growth inhibition?
30.3% (inactive)

Entry under review: COC(=O)CCC(=O)c1ccc2c(c1)CC1(C2)Cc2ccc3c(c2C1)CCCC3=O (stereo not drawn) . Reported growth inhibition?
-4.25% (inactive)

Entry under review: `Cc1cc(O)c(C(C)C)cc1N=O` . Reported growth inhibition?
6.35% (inactive)

Entry under review: `CC(=O)c1cc2c(cc1C)CCCC2(C)C` . Reported growth inhibition?
1.35% (inactive)

Entry under review: CCCCCCCCN1COC2CCc3ccccc3C21 (stereo not drawn) . Reported growth inhibition?
92.3% (active)

Entry under review: `Nc1cccc(S(=O)(=O)Nc2c(N)nc(SCC(=O)O)[nH]c2=O)c1` . Reported growth inhibition?
21.6% (inactive)

Entry under review: `O=C(Nc1ccc(NC(=O)OCc2ccccc2)c(Cl)c1)OCc1ccccc1` . Reported growth inhibition?
3% (inactive)

Entry under review: `O=C(Nc1ccc(C2=NCCN2)c(O)c1)c1ccc(C(=O)Nc2ccc(C3=NCCN3)c(O)c2)cc1` . Reported growth inhibition?
28.6% (inactive)
